Test system: HEK-Blue IFNγ reporter cells, IFNγ-stimulated STAT1 SEAP reporter
test_summary: HEK-Blue IFNγ reporter assay (SEAP) for determining selectivity
Assay type: cell-based
run_conditions: Homo sapiens, 50 ng/mL human recombinant IFNγ, SEAP readout, read-out: IFN-γ (SEAP selectivity, IC50 class)
pIC50: −log10 of the molar value.
# reported pIC50; entries follow

> print(dat)
                                   compound        result
1  [2H]C([2H])([2H])NC(=O)c1nnc(NC(=O)[C@H]2C[C@H]2F)cc1Nc1nccc2c1N(C)Cc1nn(C)nc1-2 [Compound 115]  6.52 to 7.52

Then there is this compound:
get_value(item= [2H]C([2H])([2H])NC(=O)c1nnc(NC(=O)C2CC2)cc1Nc1nccc2c1N(C)[C@@H](C)c1nc(C)nn1-2 [Compound 112] , readout=pIC50) returns < 6.00

All figures here come from patent US12103937B2.
